Quick list: IC50 per entry.
- Tested system: recombinant eIF4E (Homo sapiens (Human))
- Sequence (P06730 whole entry): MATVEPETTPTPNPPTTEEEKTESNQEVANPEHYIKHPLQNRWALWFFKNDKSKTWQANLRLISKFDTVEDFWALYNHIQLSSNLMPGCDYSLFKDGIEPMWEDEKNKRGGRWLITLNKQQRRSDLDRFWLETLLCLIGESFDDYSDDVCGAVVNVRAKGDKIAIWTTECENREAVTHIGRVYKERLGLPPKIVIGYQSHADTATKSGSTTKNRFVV
- Assay info: Fluorescence polarization competition assay for eIF4E binding potency
- Protocol conditions: inhibition of eIF4E/EDA-m7GDP-ATTO-550 binding by 50%; Table 4B calculated values; read-out: IC50
API: value field is a number in nM; no unit string.

Item: `CNS(=O)(=O)c1ccc(C#N)c2c(=O)n(CCOc3ccc(Cl)cc3-c3ccnc4c(C(=O)O)csc34)c(C)nc12` Test system: recombinant eIF4E (Homo sapiens (Human)) Read-out: IC50 Value: ?
38

Item: `Cc1cc(-c2cc(Cl)ccc2OCCn2c(C)nc3cc(C(F)(F)F)c(-c4cncc(C(F)(F)F)n4)c(C#N)c3c2=O)c2scc(C(=O)O)c2n1` Test system: recombinant eIF4E (Homo sapiens (Human)) Read-out: IC50 Value: ?
15.5

Item: `CCN(c1ncc2nc(C)n(CC#Cc3ccc(Cl)cc3-c3ccnc4c(C(=O)O)csc34)c(=O)c2c1C#N)C1CCN(C2COC2)CC1` Test system: recombinant eIF4E (Homo sapiens (Human)) Read-out: IC50 Value: ?
20.1

Item: `Cc1cc(-c2cc(Cl)ccc2OCCn2c(C)nc3cc(C(F)(F)F)c(-c4cncc(C(F)(F)F)n4)nc3c2=O)c2scc(C(=O)O)c2n1` Test system: recombinant eIF4E (Homo sapiens (Human)) Read-out: IC50 Value: ?
21.1

Item: `Cc1cc(-c2cc(Cl)ccc2OCCn2c(C)nc3c(C)nc(-c4ccccc4C(F)(F)F)c(C#N)c3c2=O)c2scc(C(=O)O)c2n1` Test system: recombinant eIF4E (Homo sapiens (Human)) Read-out: IC50 Value: ?
14.3

Item: `Cc1nc2c(N(C)C3CCN(CC(F)(F)F)CC3)ncc(C#N)c2c(=O)n1CCOc1ccc(Cl)cc1-c1ccnc2c(C(=O)O)csc12` Test system: recombinant eIF4E (Homo sapiens (Human)) Read-out: IC50 Value: ?
24.6

Item: `Cc1nc2cc(C(F)(F)F)c(CN3CCOCC3)c(C#N)c2c(=O)n1CC#Cc1ccc(Cl)cc1-c1ccnc2c(C(=O)O)csc12` Test system: recombinant eIF4E (Homo sapiens (Human)) Read-out: IC50 Value: ?
39.7

Item: `N#Cc1cc2c(=O)n(CCOc3ccc(Cl)cc3-c3ccc(C(=O)O)o3)cnc2cn1` Test system: recombinant eIF4E (Homo sapiens (Human)) Read-out: IC50 Value: ?
1650

Item: `Cc1nc2cc(C(F)(F)F)cc(C#N)c2c(=O)n1CCOc1ccc(Cl)cc1-c1ccnc(-c2nnn[nH]2)c1` Test system: recombinant eIF4E (Homo sapiens (Human)) Read-out: IC50 Value: ?
144

Item: `Cc1cc(-c2cc(Cl)ccc2OCCn2c(C)nc3cnc(-c4ccc(F)cc4)c(C#N)c3c2=O)c2scc(C(=O)O)c2n1` Test system: recombinant eIF4E (Homo sapiens (Human)) Read-out: IC50 Value: ?
14.7

Item: `Cc1cc(-c2cc(Cl)ccc2OCCn2c(C)nc3c(C)nc(C4CC4)c(C#N)c3c2=O)c2scc(C(=O)O)c2n1` Test system: recombinant eIF4E (Homo sapiens (Human)) Read-out: IC50 Value: ?
32.5

Item: `C#Cc1c(C(=O)O)cccc1-c1cc(Cl)ccc1OCCn1c(C)nc2ccc(C(F)F)c(C#N)c2c1=O` Test system: recombinant eIF4E (Homo sapiens (Human)) Read-out: IC50 Value: ?
21.6

Item: `Cc1cc(-c2cc(Cl)ccc2OCCn2c(C)nc3cc(C(F)F)c(-c4cccnc4C)c(C#N)c3c2=O)c2scc(C(=O)O)c2n1` Test system: recombinant eIF4E (Homo sapiens (Human)) Read-out: IC50 Value: ?
4.99

Item: `CNS(=O)(=O)c1cc2c(=O)n(CCOc3ccc(Cl)cc3-c3cccc(C(=O)O)c3)cnc2cn1` Test system: recombinant eIF4E (Homo sapiens (Human)) Read-out: IC50 Value: ?
190

Item: `Cc1cc(-c2cc(Cl)ccc2OCCn2c(C)nc3cc(C(F)(F)F)c(-c4ncccn4)nc3c2=O)c2scc(C(=O)O)c2n1` Test system: recombinant eIF4E (Homo sapiens (Human)) Read-out: IC50 Value: ?
9.19

Item: `Cc1nc2cc(C(F)(F)F)c(C3CCNCC3)cc2c(=O)n1CCOc1ccc(Cl)cc1-c1ccnc2c(C(=O)O)csc12` Test system: recombinant eIF4E (Homo sapiens (Human)) Read-out: IC50 Value: ?
67.9

Item: `Cc1cc(-c2cc(Cl)ccc2OCCn2c(C)nc3c(C)nc(-c4ccc(Cl)cc4)c(C#N)c3c2=O)c2scc(C(=O)O)c2n1` Test system: recombinant eIF4E (Homo sapiens (Human)) Read-out: IC50 Value: ?
7.39

Item: `Cc1cc(-c2cc(Cl)ccc2OCCn2c(C)nc3c(C)nc(-c4cc(F)cnc4C)c(C#N)c3c2=O)c2scc(C(=O)O)c2n1` Test system: recombinant eIF4E (Homo sapiens (Human)) Read-out: IC50 Value: ?
20.4

Item: `N#Cc1cccc2nc(C(F)F)n(CCOc3ccc(Cl)cc3-c3ccc(C(=O)O)c4cnsc34)c(=O)c12` Test system: recombinant eIF4E (Homo sapiens (Human)) Read-out: IC50 Value: ?
301

Item: `Cc1nc2c(C(F)F)ccc(C#N)c2c(=O)n1CCOc1ccc(Cl)cc1-c1cccc(C(=O)O)c1` Test system: recombinant eIF4E (Homo sapiens (Human)) Read-out: IC50 Value: ?
39.6
